Protocol Text: Ataluren plasma pharmacokinetics, NCT02819557 phase 2 open-label trial (LC-MS/MS)
Type: in vivo, human
Condition Set: male, human, plasma, po, 20 mg/kg, Week 4 - Day 28; arithmetic mean, n=14; oral 10, 10, 20 mg/kg TID; read-out: tmax (0-6 hr)
Assay Metric: Tmax (h)
The reply should be a number in h, with the unit left off.

What Tmax value was documented for this molecule, `O=C(O)c1cccc(-c2noc(-c3ccccc3F)n2)c1` ?
2.72

====

Protocol Text: Ataluren plasma pharmacokinetics, NCT02819557 phase 2 open-label trial (LC-MS/MS)
Format: in vivo, human
Condition Set: male, human, plasma, po, 20 mg/kg, Week 0 - Day 1; arithmetic mean, n=14; boys ≥2 to <5 years with nmDMD; oral 10, 10, 20 mg/kg TID; read-out: AUC0-6
Assay Metric: AUC(0-t) (ng·h/mL)
Please give a number only; it is taken to be in ng·h/mL.

Name the recorded AUC(0-t) for `O=C(O)c1cccc(-c2noc(-c3ccccc3F)n2)c1` .
53000

====

Protocol Text: Ataluren plasma pharmacokinetics, NCT02819557 phase 2 open-label trial (LC-MS/MS)
Format: in vivo, human
Condition Set: male, human, plasma, po, 20 mg/kg, Week 4 - Day 28; arithmetic mean, n=14; oral 10, 10, 20 mg/kg TID; read-out: AUC0-10
Assay Metric: AUC(0-t) (ng·h/mL)
The answer is to be given in ng·h/mL; state only the numeric part.

Given the compound `O=C(O)c1cccc(-c2noc(-c3ccccc3F)n2)c1` , what is its reported AUC(0-t)?
82100

====

Protocol Text: Ataluren plasma pharmacokinetics, NCT02819557 phase 2 open-label trial (LC-MS/MS)
Type: in vivo, human
Condition Set: male, human, plasma, po, 20 mg/kg, Week 0 - Day 1; arithmetic mean, n=14; oral 10, 10, 20 mg/kg TID; read-out: tmax (0-6 hr)
Assay Metric: Tmax (h)
Write the number in h without appending the unit.

What does the record list as Tmax for O=C(O)c1cccc(-c2noc(-c3ccccc3F)n2)c1 [ataluren] ?
3.84

Where do the numbers come from? From patent US12458629B2.
